# Tested on: MDA-MB-468 breast
# Protocol summary: NCI tumour cell line growth inhibition, 48 h; in the data active means GI50 below about 0.43 µM; inactive means the rest
Outcome codes: active, inactive

# Compound, Label class
data = [
    ("O=[N+]([O-])c1ccc(-c2nnc(SCc3ccc(O)c4ncccc34)o2)cc1", "active"),
    ("CCCc1cc2c(=O)c(C(=O)OC)c[nH]c2cc1N(CC)CC", "inactive"),
    ("O=C1c2cc3c(cc2-c2c1c1ccc(Cl)cc1c(=O)n2CCCNCCO)OCO3", "active"),
    ("Cn1c(/C=C(\\C#N)c2ccccc2)nc2c(N3CCOCC3)nc(Cl)nc21", "inactive"),
    ("Cc1cc2nc3c4cc(N)ccc4n(CCN(C)C)c3nc2cc1C", "inactive"),
    ("CC1=C2C[C@H]3[C@@H](CC[C@@H]4CC(NS(C)(=O)=O)CC[C@@]43C)[C@@H]2CC[C@@]2(C1)O[C@@H]1C[C@H](C)CN[C@H]1[C@H]2C (some centres undefined)", "inactive"),
    ("C=C1C(=O)O[C@H]2[C@H]1CC/C(Cn1cc(-c3cc(C(F)(F)F)cc(C(F)(F)F)c3)nn1)=C\\CC[C@@]1(C)O[C@@H]21", "active"),
    ("CCOC(=O)N1CCc2cc(OC)c(OC)c3c2c1cc1cc(OC)c(OC)cc13", "inactive"),
    ("COc1cc(-c2nn(-c3cccc(NC(=O)Nc4cc(C(F)(F)F)cc(C(F)(F)F)c4)c3)cc2-c2ccncc2)ccc1Cl", "active"),
]

====

Reported TGI by item:
# System: SF-539 CNS
# Protocol summary: NCI tumour cell line growth inhibition, 48 h

# Line notation, TGI
measured = [
    ("COc1cc2cc(C(=O)N3C[C@@H](CCl)c4c3cc(OC(=O)N3CCN(C)[C@@H]5CSSC[C@H]53)c3ccccc43)[nH]c2c(OC)c1OC", "0.0293 µM"),
    ("COc1ccc(Cc2nn(CC(=O)N/N=C/c3ccc(F)cc3)c(=O)c3c(C)noc23)cc1", "22.8 µM"),
    ("O=c1oc2ccc(-c3ccc(F)cc3F)cc2c(=O)n1-c1ccc(F)c(Cl)c1", "10.4 µM"),
    ("O=C(/C=C/c1ccco1)c1nc2ccccc2n1Cc1ccc(Br)cc1", "35 µM"),
]

====

# Tested on: MDA-MB-468 breast
# Protocol summary: NCI tumour cell line growth inhibition, 48 h; in the data active = GI50 below about 0.43 µM; inactive = the rest
Outcome codes: True (active), False (inactive)

# Compound, Label class
measured = [
    ("CCc1c(C#N)c(S[C@@H](C(N)=O)c2ccccc2)nc(N(C)C)c1C#N", "False"),
    ("O=c1oc2ccc(-c3ccc(F)cc3F)cc2c(=O)n1-c1ccc(F)c(Cl)c1", "False"),
    ("O=C(/C=C/c1cccnc1)NCCCCC1CCCN(C(=O)c2ccccc2)C1 (stereo not given)", "False"),
    ("CC1(C)N=C(N)N=C(N)N1c1ccc(OCCCCOc2ccc(S(=O)(=O)F)cc2)c(Cl)c1", "True"),
    ("O=c1c2ccccc2n(C[C@H]2CO2)c2ccccc12", "False"),
]

====

# Test system: MDA-MB-468 breast
# Protocol summary: NCI tumour cell line growth inhibition, 48 h
Reported TGI by item:

# Molecule, System, TGI
rows = [
    ("Fc1ccc2c(c1)c(-c1nc(-c3c[nH]c4ncccc34)cs1)cn2CCCN1CCCCC1", "MDA-MB-468 breast", "3.23 µM"),
    ("C=CC(=O)N1CCN(c2nc(=O)n(-c3c(C)ccnc3C(C)C)c3nc(-c4c(O)cccc4F)c(F)cc23)[C@@H](C)C1", "MDA-MB-468 breast", "> 81.1 µM"),
    ("COC(=O)C1=C(C(=O)ON)C2C=CC1(C(Cc1ccccc1)Nc1ccccc1)O2 (stereo not given)", "MDA-MB-468 breast", "2.8 µM"),
    ("COc1cc2cc(C(=O)N3C[C@@H](CCl)c4c3cc(OC(=O)N3CCN(C)[C@@H]5CSSC[C@H]53)c3ccccc43)[nH]c2c(OC)c1OC", "MDA-MB-468 breast", "0.0308 µM"),
    ("O=C(/C=C/c1ccco1)c1nc2ccccc2n1Cc1ccc(Br)cc1", "MDA-MB-468 breast", "26.9 µM"),
]
